Origin of values: PubChem BioAssay (NCI)

Recorded TGI by entry
tested on: PC-3 prostate; test: NCI tumour cell line growth inhibition, 48 h

Recorded results for 5 compounds are shown here.
Query: Give its TGI value. Item: CC(=O)Nc1ccc2c3c(cc(O)c2c1)N(C(=O)CCCCCCC(=O)N1CC(CCl)c2c1cc(O)c1cc(NC(C)=O)ccc21)CC3CCl (stereo not given)
Response: 1.13 µM

Query: Repeat for the following compound: O=c1[nH]c(=S)[nH]c2c1CN(CCCN1CCOCC1)CN2
Response: 57.1 µM

Query: Also check [N-]=[N+]=NCCCCCC(=O)OC(C(=O)c1ccccc1)c1cccc(OCC(=O)NCCOCCOCCNC(=O)CCCC[C@@H]2SC[C@@H]3NC(=O)N[C@@H]32)c1 (stereo not given in full)
Response: > 100 µM

Query: Next: Nc1nnnn1CCO
Response: > 100 µM

Query: Same lookup for CS(=O)(=O)CCc1cccc(C(=O)c2cnn(-c3ccc(F)cc3)c2N)c1 , please.
Response: > 25 µM

Next:
Query: Requested field: TGI. Item: O=C(COc1cc(O)c2c(=O)cc(-c3ccccc3)oc2c1)Nc1ccccc1C(F)(F)F
Response: > 100 µM

Query: // query: CCCCCCCCCCCCCCCCCCNC(=S)/N=C\C1=C(O)c2ccccc2C1=O
Response: 15.9 µM
